Test system: Enterococcus faecalis
Experiment summary: Antibacterial activity against vancomycin-resistant Enterococcus faecalis ATCC 51299 assessed as inhibition of bacterial growth measured after 16 to 20 hrs by CLSI broth microdilution method
Format: functional
Run parameters: time 16-20 hrs
Listed here: items and their measured MIC.
Recorded endpoint: MIC (µg/mL)

Smiles representation	Recorded endpoint	Comparison symbol	Value observed
CC[C@@](C)(NC(=O)[C@H](CC(C)C)NC(=O)CNC(=O)[C@@](C)(CC)NC(=O)C(C)(C)NC(=O)C(C)(C)NC(=O)C(C)(C)NC(=O)[C@H](Cc1ccccc1)NC(C)=O)C(=O)NC(C)(C)C(=O)N1C[C@H](O)C[C@H]1C(=O)N[C@@H](CCC(N)=O)C(=O)N[C@](C)(CC)C(=O)N1C[C@H](O)C[C@H]1C(=O)NC(C)(C)C(=O)N[C@H](CO)Cc1ccccc1	MIC	=	64
CC[C@@](C)(NC(=O)[C@H](CC(C)C)NC(=O)CNC(=O)C(C)(C)NC(=O)C(C)(C)NC(=O)C(C)(C)NC(=O)C(C)(C)NC(=O)[C@@H](NC(C)=O)C(C)C)C(=O)NC(C)(C)C(=O)N1C[C@H](O)C[C@H]1C(=O)N[C@@H](CCC(N)=O)C(=O)N[C@](C)(CC)C(=O)N1C[C@H](O)C[C@H]1C(=O)NC(C)(C)C(=O)N[C@H](CO)Cc1ccccc1	MIC	>	100
CC(=O)O[C@H]1C[C@@]2(C)[C@@H](CC[C@H]3[C@@]4(C)C=CC(=O)[C@@H](C)[C@@H]4[C@H](OC(C)=O)C(=O)[C@@]32C)/C1=C(\CCC=C(C)C)C(=O)O	MIC	=	8
CC[C@@](C)(NC(=O)[C@H](CC(C)C)NC(=O)CNC(=O)C(C)(C)NC(=O)C(C)(C)NC(=O)C(C)(C)NC(=O)C(C)(C)NC(=O)[C@H](Cc1ccccc1)NC(C)=O)C(=O)NC(C)(C)C(=O)N1C[C@H](O)C[C@H]1C(=O)N[C@@H](CCC(N)=O)C(=O)N[C@](C)(CC)C(=O)N1C[C@H](O)C[C@H]1C(=O)NC(C)(C)C(=O)N[C@H](CO)Cc1ccccc1	MIC	>	100
